Values compiled from PubChem BioAssay AID757.

molecular target: Ras-related C3 botulinum toxin substrate 1 (Homo sapiens); assay: compounds altering fluorescent GTP loading on wildtype Rac1 – biochemical, GST-Rac1 beads, flow cytometry, multiplex, primary screen (AID 757); conditions: at 10 µM, actives lie on both sides, 0 = cold GTP competed, 100 = untreated
Hit rate of the full screen: of about 190,000 compounds, about 520 (0.27%) were called active. Another 2% or so got no clear call; they are omitted.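 The calls were made as follows: active = GTP binding activity at least 20 points away from the 100% control level, either lower or higher; inconclusive = compound flagged as likely green fluorescent, judged across all proteins; inactive = the rest.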 This is one part of a sample in which actives are shown more often than they occur.
Choose one outcome from this list and give only that: active, inactive

Prompt: Give the logged outcome of this assay for the following compound: COc1ccccc1NC(=O)CCSc1nnc(-c2ccc(O)cc2)o1
Completion: inactive

Prompt: Give the logged outcome of this assay for the following compound: Cc1cccc(NC(=O)CSc2nc3[nH]ncc3c(=O)[nH]2)c1
Completion: inactive

Prompt: Give the logged outcome of this assay for the following compound: CC(C)CCN1CCN(C/C=C/c2ccco2)CC1CCO (stereo unspecified)
Completion: inactive

Prompt: Give the logged outcome of this assay for the following compound: Cc1ccc(SC(CC(=O)c2ccc(C(C)(C)C)cc2)C(=O)O)cc1 (stereo unspecified)
Completion: active

Prompt: Give the logged outcome of this assay for the following compound: Cc1ccc(C(=O)CS(C)(=O)=O)cc1
Completion: inactive

Prompt: Give the logged outcome of this assay for the following compound: Cc1cccc(NC(=S)N2CCC(O)CC2)c1C
Completion: inactive

----------
For each of the compounds below, state its GTP binding activity (% of control).
target: Ras-related C3 botulinum toxin substrate 1 (Homo sapiens) (UniProt P63000); assay: compounds altering fluorescent GTP loading on wildtype Rac1 – biochemical, GST-Rac1 beads, flow cytometry, multiplex, primary screen (AID 757); details: at 10 µM, actives lie on both sides, 0 = cold GTP competed, 100 = untreated
The campaign covered roughly 190,000 compounds. About 520 (0.27%) were called active. Another 2% or so got no clear call; they are omitted. The full list was thinned out, with actives kept by preference.
Response body: numeric value in %, unit text excluded.

Prompt: Item COC(=O)CC1=NN(c2ccccc2)C(=O)C1 : provide GTP binding activity (% of control)
Completion: 101

Prompt: Item Cc1cccc(NC(=O)c2cccc(C(F)(F)F)c2)c1 : provide GTP binding activity (% of control)
Completion: 98

Prompt: Item COc1ccc(CC(NC(C)=O)C(=O)NC2CCN(C(=O)c3ccc(OC)c(OC)c3)CC2)cc1OC (stereo unspecified) : provide GTP binding activity (% of control)
Completion: 98

Prompt: Item CN(CCN1CCOCC1)Cc1nc(-c2ccc3c(c2)OCO3)no1 : provide GTP binding activity (% of control)
Completion: 98

Prompt: Item CC(=O)c1cc(C#N)c(N2CCCCC2)nc1C : provide GTP binding activity (% of control)
Completion: 97

Prompt: Item O=C(c1ccc(N2CCOCC2)c([N+](=O)[O-])c1)N1CCN(S(=O)(=O)c2cccs2)CC1 : provide GTP binding activity (% of control)
Completion: 96

Prompt: Item COc1cc(/C=N/Nc2ccc(C)cc2)cc(Br)c1O : provide GTP binding activity (% of control)
Completion: 97

Prompt: Item C/C(=N\OCC(=O)Nc1ccc(Br)cc1)c1cccs1 : provide GTP binding activity (% of control)
Completion: 93

Prompt: Item CC1=C(C(=O)N(C)C)C(c2ccccc2OC(F)F)NC(=O)N1 (stereo unspecified) : provide GTP binding activity (% of control)
Completion: 101

Prompt: Item COc1ccc(/C=C/C(=O)Nc2cccnc2)cc1OC : provide GTP binding activity (% of control)
Completion: 98

Prompt: Item O=C(NCC(=O)N(CC1CCCO1)C(C(=O)NC1CCCCC1)c1ccccc1)c1ccco1 (stereo unspecified) : provide GTP binding activity (% of control)
Completion: 103
